The reported measurements were obtained from patent US10213415B2.

# MEASUREMENT_TARGET: delta opioid receptor (NG108-15 cell membranes) (Mus musculus)
# Construct: NG108-15 cell membranes were purchased from Applied Cell Sciences (Rockville, Md.); host or cells: NG108-15 cells (membranes purchased)
# Sequence (P32300 whole entry): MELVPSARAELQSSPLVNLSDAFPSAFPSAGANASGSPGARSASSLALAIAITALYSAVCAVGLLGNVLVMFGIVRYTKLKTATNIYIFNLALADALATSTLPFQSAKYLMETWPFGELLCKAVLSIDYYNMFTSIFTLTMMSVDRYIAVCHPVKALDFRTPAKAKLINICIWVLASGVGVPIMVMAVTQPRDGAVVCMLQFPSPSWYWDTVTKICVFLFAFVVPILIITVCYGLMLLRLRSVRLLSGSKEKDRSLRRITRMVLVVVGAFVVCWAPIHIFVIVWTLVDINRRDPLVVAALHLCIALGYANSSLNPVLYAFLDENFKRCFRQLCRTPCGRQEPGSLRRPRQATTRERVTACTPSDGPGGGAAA
# MEASUREMENT_NOTES: Delta Opioid Receptor Functional Assay: [35S]GTPγS Binding in NG108-15 Cell Membranes, Version 2; further: test concentration or dose not given here
# Format: biochemical
# TEST_PARAMETERS: NG108-15 cell membranes, version 2; % inhibition of agonist-stimulated GTPγS binding
QUANTITY: DOR GTP-binding Assay v2 (% I)
Enter the number, and then the unit.

COMPOUND	DOR GTP-binding Assay v2 (% I)
Cc1cc(O)cc(C)c1C[C@H](N)C(=O)N(Cc1ccc(OC(C)C)cc1)[C@@H](C)c1nc(-c2ccccc2)c[nH]1	34.93%

Per the records, this compound ( COc1cc(CN(C(=O)[C@@H](N)Cc2c(C)cc(C(N)=O)cc2C)[C@@H](C)c2nc(-c3ccccc3)c[nH]2)ccc1C(=O)O ) has DOR GTP-binding Assay v2 (% I) equal to 59.70%

Per the records, this compound ( COC(=O)c1ccc(CN(C(=O)[C@@H](N)Cc2c(C)cc(C(N)=O)cc2C)[C@@H](C)c2nc(-c3ccccc3)c[nH]2)nc1 ) has DOR GTP-binding Assay v2 (% I) equal to 66.00%
